System: Vero E6 infected with SARS-CoV-2
Assay: inhibition of SARS-CoV-2 cytopathic effect; higher = more antiviral protection, active = above 15
Settings: 8.33 nM; 48 h
So I've got a bunch of compounds here, and I need their inhibition of SARS-CoV-2 cytopathic effect values.
Give bare numbers, in %.

Below: 3 compounds and their reported inhibition of SARS-CoV-2 cytopathic effect.
Compound	Quantitative Result
CN(C)/C=N/c1c(I)cc(I)c(CCC(=O)O)c1I [iopodic-acid]	0.15
O=C(O)C(=O)c1cn(Cc2ccccc2)c2ccc(-c3ccc(OC(F)(F)F)cc3)cc12 [tiplaxtinin]	2.56
Oc1ccc(C2CNCCc3c2cc(O)c(O)c3Cl)cc1 (stereo not drawn) [fenoldopam]	1.3

Give inhibition of SARS-CoV-2 cytopathic effect for each listed item.
1. O=C1c2ccc(Nc3ccc(F)cc3F)cc2CCc2ccc(OC[C@H](O)CO)cc21 [skepinone-L]
2. O=c1[nH]cnc2c([C@@H]3N[C@H](CO)[C@@H](O)[C@H]3O)c[nH]c12 [forodesine]
3. O=[N+]([O-])c1cn2c(n1)OC[C@@H](OCc1ccc(OC(F)(F)F)cc1)C2 [pretomanid]
4. O=C(O)CCC(=O)OC[C@@H](NC(=O)C(Cl)Cl)[C@H](O)c1ccc([N+](=O)[O-])cc1 [chloramphenicol-sodium-succinate]
5. CC(C)c1cnn2c(NCc3ccccc3)cc(NCCCCCCN)nc12
6. Cc1nnc2ccc(-c3cccc(C(F)(F)F)c3)nn12
7. O=C1C[C@@H](c2ccc(O)cc2)Oc2cc(O)ccc21

RESULT:
-3.41
0.06
0.54
-0.01
-1.33
3.68
2.87

Give me inhibition of SARS-CoV-2 cytopathic effect for each of these compounds, listed below.
1. CCn1cc(-c2cccc(C(F)(F)F)c2)c2sc(C(=N)NC3CCS(=O)(=O)CC3)cc2c1=O
2. N#Cc1cc2c(OCC(O)CN3CCN(C(c4ccccc4)c4ccccc4)CC3)cccc2[nH]1 (stereo not drawn)

RESULT:
[3.81, -0.23]

Give inhibition of SARS-CoV-2 cytopathic effect for all compounds that follow.
1. COc1cc2c(Nc3ccc(Cl)c(Cl)c3F)ncnc2cc1OC[C@@H]1C[C@@H]2CN(C)C[C@@H]2C1
2. CNCc1cc(-c2ccccc2F)n(S(=O)(=O)c2cccnc2)c1 [vonoprazan]

RESULT:
[-2.66, -1.43]

Please state inhibition of SARS-CoV-2 cytopathic effect for every compound in the list that follows.
1. CCOC(=O)c1cc(C#N)c(N2CCC(C(=O)NS(=O)(=O)Cc3ccccc3)CC2)nc1C
2. C[C@H]1C[C@H]2[C@@H]3CCC4=CC(=O)C=C[C@]4(C)[C@@]3(Cl)[C@@H](O)C[C@]2(C)[C@@]1(O)C(=O)CO [beclomethasone]
3. C[C@@H](N[C@H]1CCCC[C@@H]1NC(=O)c1ccc(Cl)cc1)c1cccc2ccccc12 [Calhex-231]
4. O=C1c2ccccc2-c2n[nH]c3cccc1c23 [pyrazolanthrone]

RESULT:
1. 2.38
2. -1.77
3. -0.88
4. 0.82

====

Test system: Vero E6 infected with SARS-CoV-2
Test: inhibition of SARS-CoV-2 cytopathic effect; higher = more antiviral protection, active = above 15
Settings: 1 nM; 48 h
Quantity Measured: inhibition of SARS-CoV-2 cytopathic effect (%)
Answers are plain numbers, in %.

Dear colleague, could you send me inhibition of SARS-CoV-2 cytopathic effect for each of the items below? Thanks.
1. Cn1cnc2c1c(=O)[nH]c(=O)n2C
2. Cc1cc(C)cc(C(=O)N(C)[C@H](Cc2ccc(-c3ccccc3)cc2)C(=O)N[C@@H](Cc2c[nH]c3ccccc23)C(=O)O)c1

RESULT:
1: -1.8; 2: 0.46

====

Tested on: Vero E6 infected with SARS-CoV-2
Assay: inhibition of SARS-CoV-2 cytopathic effect; higher = more antiviral protection, active = above 15
Conditions: 8.33 nM; 48 h
Pick one: class 1 (active), class 0 (inactive)

Compound	Label Value
CN1CCN(c2cc3c(cc2F)c(=O)c(C(=O)O)cn3-c2ccc(F)cc2)CC1	class 0
Nc1ncnc2c1ncn2[C@@H]1O[C@H](CO)C[C@H]1O [cordycepin]	class 0
C[C@@H]1COC(Nc2ccc3ncnc(Nc4ccc(OCc5nccs5)c(Cl)c4)c3c2)=N1	class 0

QUERY: // param item: COc1ccc(CN(CCN(C)C)c2ncccn2)cc1 ; yields the recorded call
RESULT: class 0

QUERY: Look up the recorded call for Nc1ccc(S(=O)(=O)Nc2ccnn2-c2ccccc2)cc1 in this test.
RESULT: class 0

QUERY: What classification did O=C(/C=C/c1ccccc1)NCCO end up with in this test?
RESULT: class 0

QUERY: // return assay outcome for O=C(N[C@@H]1Cc2ccccc2N(C[C@@H](O)CO)C1=O)c1cc2cc(Cl)sc2[nH]1
RESULT: class 0

QUERY: Recorded test call requested for N[C@@H](C(=O)N[C@@H]1C(=O)N2C(C(=O)O)=C(Cl)CS[C@H]12)c1ccccc1
RESULT: class 0

QUERY: // outcome(item) with item = CC(C)CCNC(=O)[C@H](CC(C)C)NC(=O)[C@H]1O[C@@H]1C(=O)O
RESULT: class 0

QUERY: GET /call?item= O=C(O)C(Cc1ccccc1[N+](=O)[O-])=NNc1nc(-c2ccc(Cl)c(Cl)c2)cs1 returns the recorded outcome of this test.
RESULT: class 0

QUERY: // outcome(item) with item = CCN(CC)CCOc1ccc(Cc2ccccc2)cc1
RESULT: class 0

====

Test system: Vero E6 infected with SARS-CoV-2
Experiment: inhibition of SARS-CoV-2 cytopathic effect; higher = more antiviral protection, active = above 15
Details: 100 nM; 48 h
Hi there, I'd appreciate the recorded inhibition of SARS-CoV-2 cytopathic effect for every entry that follows.
One number for each entry, in %.

Answered examples (6):
Molecule	Target Of Assay	Endpoint Unit	Quantitative Result
O=C(Nc1cc(-c2ccccc2)nn1-c1ccccc1F)c1ccc([N+](=O)[O-])cc1	Vero E6 infected with SARS-CoV-2	%	1.23
CC(=O)N[C@H](Cc1ccc2ccccc2c1)C(=O)N[C@H](Cc1ccc(Cl)cc1)C(=O)N[C@H](Cc1cccnc1)C(=O)N[C@@H](CO)C(=O)N[C@@H](Cc1ccc(NC(=O)[C@@H]2CC(=O)NC(=O)N2)cc1)C(=O)N[C@H](Cc1ccc(NC(N)=O)cc1)C(=O)N[C@@H](CC(C)C)C(=O)N[C@@H](CCCCNC(C)C)C(=O)N1CCC[C@H]1C(=O)N[C@H](C)C(N)=O	Vero E6 infected with SARS-CoV-2	%	3.06
O=C(c1cc(S(=O)(=O)Nc2ccccc2F)c(F)cc1Cl)N1CCN2CCC[C@@H]2C1	Vero E6 infected with SARS-CoV-2	%	1.64
Oc1ccnc2cc(Cl)ccc12	Vero E6 infected with SARS-CoV-2	%	0.09
O=C(CCc1ccc(O)cc1)c1c(O)cc(O)cc1O	Vero E6 infected with SARS-CoV-2	%	6.09
C[C@@H](c1nc(-c2ccc(C#N)cc2)cs1)[C@](O)(Cn1cncn1)c1cc(F)ccc1F	Vero E6 infected with SARS-CoV-2	%	-0.9

Each molecule below has a recorded value; state its inhibition of SARS-CoV-2 cytopathic effect.
1. OC(c1ccccc1)(c1ccccc1)C1CCNCC1
2. O=C(C[S+]([O-])Cc1ccco1)NC/C=C\COc1cc(CN2CCCCC2)ccn1 (stereo not drawn)
3. O=C(NCCO)c1cc(C(=O)NCCO)cc(C(=O)NCCO)c1
4. CC(C)CN(C[C@@H](OP(=O)(O)O)[C@H](Cc1ccccc1)NC(=O)O[C@H]1CCOC1)S(=O)(=O)c1ccc(N)cc1

RESULT:
[-2.53, 1.21, -1.2, 0.76]

====

System: Vero E6 infected with SARS-CoV-2
Assay: inhibition of SARS-CoV-2 cytopathic effect; higher = more antiviral protection, active = above 15
Settings: 833.33 nM; 48 h
Can you tell me inhibition of SARS-CoV-2 cytopathic effect for the items I'm about to list?
One number for each entry, in %.

Answered cases to consult:
Molecule	Quantitative Result
CC(C)C[C@H](NC(=O)[C@H](Cc1ccccc1)NC(=O)c1cnccn1)B(O)O [bortezomib]	27.1
Cc1ccccc1-c1cc(N2CCN(C)CC2)ncc1N(C)C(=O)C(C)(C)c1cc(C(F)(F)F)cc(C(F)(F)F)c1 [netupitant]	-1.26
O=C(NCc1cccc(O)c1)Nc1nc(-c2ccncc2)cs1	-6.16
CCc1ccc(/C=C2/SC(=S)NC2=O)cc1	3.21

QUERY: inhibition of SARS-CoV-2 cytopathic effect for COc1ccc(Cl)cc1C(=O)NCCc1ccc(C(=O)O)cc1 [meglitinide] ?
RESULT: 0.11

====

Test system: Vero E6 infected with SARS-CoV-2
Test: SARS-CoV-2 infection rate relative to infected DMSO; higher = more infection, active = 60 or less
Settings: 24 h
Quantity Measured: SARS-CoV-2 infection rate (%)
Give bare numbers, in %.

Compound	SARS-CoV-2 infection rate / %
CN(C)CC(=O)Nc1ccc2[nH]c(=O)c3ccccc3c2c1 (10 µM)	92.5
NC(=O)N1c2ccccc2CC(O)c2ccccc21 (stereo unspecified) [licarbazepine] (10 µM)	97

Okay, here is my list. What is SARS-CoV-2 infection rate for each of these?
1. CCOc1nc2c(N)ncnc2n1CC (10 µM)
2. N=C(Nc1ccccc1)Nc1ccccc1 [diphenylguanidine] (10 µM)
3. CN(CCOP(=O)(O)O)C(=N)N [creatinol-phosphate] (10 µM)
4. Nc1ccc(S(=O)(=O)c2ccc(N)cc2)cc1 [dapsone] (10 µM)
5. COc1cccc(/C=N/N=C/c2cccc(OC)c2)c1 (10 µM)
6. CC(C)COC(=O)c1ccc(N)cc1 [isobutamben] (10 µM)

RESULT:
[88, 98, 95.5, 99.5, 92, 106]

The following compounds each have a reported value; give each one's SARS-CoV-2 infection rate.
1. N#CCC1(n2cc(-c3ncnc4[nH]ccc34)cn2)CN(C2CCN(C(=O)c3ccnc(C(F)(F)F)c3F)CC2)C1 [itacitinib] (10 µM)
2. NC(=O)c1ccccc1O [salicylamide] (10 µM)
3. N#Cc1ccc(Oc2ccc3c(c2)COB3O)cc1 [crisaborole] (10 µM)
4. O=C(Nc1ccccc1)N1CCN(c2nc(-c3ccccc3)ns2)CC1 (10 µM)
5. Nc1nccc2c1ncn2[C@@H]1O[C@H](CO)[C@@H](O)[C@@H]1O [3-deazaadenosine] (10 µM)
6. NC[C@H](O)c1ccc(O)c(O)c1 [norepinephrine] (10 µM)
7. Nc1nc2c(ncn2COCCO)c(=O)[nH]1 [acyclovir] (10 µM)
8. CC(C)(O)CS(=O)(=O)Nc1ccc2c(c1)CCN(C(=O)COc1cccnc1)C2 [Nampt-IN-1] (10 µM)

RESULT:
[97.5, 102, 105, 112, 106, 109, 104, 104]

Record SARS-CoV-2 infection rate for all entries; do not skip any.
1. COc1ccc(-n2nc(C(F)(F)F)cc2-c2ccc(Cl)cc2)cc1 (0.833333 µM)
2. Cn1cc(C(=O)C(=O)N[C@H]2CN3CCC2CC3)c2ccccc21 (10 µM)
3. CCCCCCCCCCCCCCCCCCCCCCCCCCCCO [1-octacosanol] (10 µM)
4. O=C(NO)c1ccc(O)c(O)c1 [didox] (10 µM)

RESULT:
[101, 97.5, 100, 96]

Please go through the list and note SARS-CoV-2 infection rate for each compound.
1. COC(=O)C1=C(C)NC(C)=C(C(=O)OC(C)C)[C@@H]1c1cccc2nonc12 [isradipine] (10 µM)
2. Cc1cc2nc3c(=O)[nH]c(=O)nc-3n(C[C@H](O)[C@H](O)[C@H](O)COP(=O)(O)O)c2cc1C [riboflavin-5-phosphate-sodium] (10 µM)

RESULT:
1. 104
2. 102

Value sought for every listed compound: SARS-CoV-2 infection rate.
1. CC1(C)O[C@H]2CC(=O)OC[C@]23[C@H]2CC[C@@]4(C)[C@H](c5ccoc5)OC(=O)[C@H]5O[C@]54[C@]2(C)C(=O)C[C@@H]13 [limonin] (10 µM)
2. NC(=O)N1C(=O)/C(=C(\O)c2cccs2)c2cc(Cl)ccc21 [tenidap] (10 µM)
3. C[C@@H](NCCCc1cccc(C(F)(F)F)c1)c1cccc2ccccc12 [cinacalcet] (10 µM)
4. Cc1ccc(S(=O)(=O)NC2c3ccccc3Oc3ccccc32)cc1 (10 µM)
5. CN1C(=O)N(c2ccc(C#N)c(C(F)(F)F)c2)C(=O)[C@]1(CO)c1ccccc1 [GLPG0492-R-enantiomer] (10 µM)
6. O=c1sn(-c2cccc3ccccc23)c(=O)n1Cc1ccccc1 [tideglusib] (10 µM)
7. Cc1c(O)c(=O)ccn1C [deferiprone] (10 µM)
8. COc1ccc(CN2C(=O)C(=O)c3cc(OC(F)(F)F)ccc32)cc1 (0.833333 µM)

RESULT:
103
91
20
95.5
104
108
98
102

Could you tell me SARS-CoV-2 infection rate for each of these compounds? They are listed below.
1. CN1C(=O)OC(C)(C)C1=O [trimethadione] (10 µM)
2. O=C(C(c1ccccc1)c1ccccc1)N1CCN(CC(O)COc2cccc3ncccc23)CC1 (stereo unspecified) [dofequidar] (10 µM)
3. OC[C@H]1O[C@H]([S-])[C@H](O)[C@@H](O)[C@@H]1O.[Au+] [aurothioglucose] (10 µM)
4. C[N+](C)(C)CCCCCC[N+](C)(C)C [hexamethonium] (10 µM)
5. COc1cc(C(=O)OCCCN2CCCN(CCCOC(=O)c3cc(OC)c(OC)c(OC)c3)CC2)cc(OC)c1OC [dilazep] (0.833333 µM)
6. N=C(N)c1ccc(N2CCN(C3CCN(CC(=O)O)CC3)CC2)cc1 (10 µM)

RESULT:
[106, 89.5, 110, 114, 106, 106]
